- Test system: ben-1 mutant (ECA882) C. elegans
- Protocol: microbe, parasite or virus in culture
- Measurement Parameters: Caenorhabditis elegans, read-out: C. elegans ben-1(e1880) development/viability
The following compounds are listed with their measured viability at 15.6 µM values.
Property: viability at 15.6 µM (%)

Compound: Cc1ccc(CSCc2nc3ccccc3[nH]2)cc1
Assay Value: 87.2
--
Compound: Nc1nc2ccccc2n1CCOc1ccc(Br)cc1
Assay Value: 100
--
Compound: Cc1ccccc1OCCCCn1cnc2ccccc21
Assay Value: 100
--
Compound: Clc1ccc(SCCCCn2cnc3ccccc32)cc1
Assay Value: 84.7
--
Compound: Cc1nc2ccccc2n1CCOc1ccccc1
Assay Value: 97.1
--
Compound: CCCn1c(COc2ccc(C)cc2)nc2ccccc21
Assay Value: 98
--
Compound: Cc1nc2ccccc2n1CCOc1ccccc1Cl
Assay Value: 99.1
--
Compound: Cc1ccccc1OCCCn1c(C)nc2ccccc21
Assay Value: 96
--
Compound: Clc1ccc(OCCn2cnc3ccccc32)c(Cl)c1
Assay Value: 91.2
--
Compound: FC(F)(F)c1cccc(OCCCCn2cnc3ccccc32)c1
Assay Value: 76.5
--
Compound: Brc1ccccc1OCCCCn1cnc2ccccc21
Assay Value: 87.8
--
Compound: Clc1ccccc1OCCCCn1cnc2ccccc21
Assay Value: 79
--
Compound: Cc1ccc(OCCn2cnc3ccccc32)cc1
Assay Value: 100
--
Compound: Cc1nc2ccccc2n1Cc1ccc(Cl)c(Cl)c1
Assay Value: 100
--
Compound: Cc1cccc(OCCn2c(C)nc3ccccc32)c1
Assay Value: 95.5
--
Compound: Cc1ccc(C(C)C)c(OCC(O)Cn2cnc3ccccc32)c1 (stereo not shown)
Assay Value: 96.4
--
Compound: Cc1ccc(OCCn2cnc3ccccc32)c(C)c1
Assay Value: 98.9
--
Compound: Cc1ccc(SCCCCn2cnc3ccccc32)cc1
Assay Value: 90.4
--
Compound: Nc1nc2ccccc2n1Cc1ccc(Cl)cc1
Assay Value: 89.9
--
Compound: CC(C)Oc1cccc(OCCn2cnc3ccccc32)c1
Assay Value: 90.6
--
Compound: Cc1ccc(SCCCn2cnc3ccccc32)cc1
Assay Value: 91.5
--
Compound: CCc1cc(OCCn2cnc3ccccc32)ccc1Cl
Assay Value: 94.7

---

- Target Desc: C. elegans (N2) complex I (NADH:ubiquinone oxidoreductase) (Caenorhabditis elegans, UniProt P24887+Q93873+Q94360)
- Sequence (Q94360 17-199): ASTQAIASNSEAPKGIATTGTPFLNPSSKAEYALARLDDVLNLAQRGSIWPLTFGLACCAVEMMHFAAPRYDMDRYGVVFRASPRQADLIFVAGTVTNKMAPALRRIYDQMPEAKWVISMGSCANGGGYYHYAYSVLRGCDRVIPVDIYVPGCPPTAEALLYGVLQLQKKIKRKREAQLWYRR
- Sequence (P24887 whole entry): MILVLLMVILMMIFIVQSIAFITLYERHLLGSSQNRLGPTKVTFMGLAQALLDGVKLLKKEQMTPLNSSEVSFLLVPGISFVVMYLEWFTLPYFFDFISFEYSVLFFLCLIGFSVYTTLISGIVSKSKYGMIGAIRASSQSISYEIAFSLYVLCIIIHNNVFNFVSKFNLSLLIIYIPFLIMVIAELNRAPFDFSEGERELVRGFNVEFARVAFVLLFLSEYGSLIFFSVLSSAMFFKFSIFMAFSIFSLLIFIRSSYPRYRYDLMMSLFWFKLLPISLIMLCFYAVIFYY
- Sequence (Q93873 31-482): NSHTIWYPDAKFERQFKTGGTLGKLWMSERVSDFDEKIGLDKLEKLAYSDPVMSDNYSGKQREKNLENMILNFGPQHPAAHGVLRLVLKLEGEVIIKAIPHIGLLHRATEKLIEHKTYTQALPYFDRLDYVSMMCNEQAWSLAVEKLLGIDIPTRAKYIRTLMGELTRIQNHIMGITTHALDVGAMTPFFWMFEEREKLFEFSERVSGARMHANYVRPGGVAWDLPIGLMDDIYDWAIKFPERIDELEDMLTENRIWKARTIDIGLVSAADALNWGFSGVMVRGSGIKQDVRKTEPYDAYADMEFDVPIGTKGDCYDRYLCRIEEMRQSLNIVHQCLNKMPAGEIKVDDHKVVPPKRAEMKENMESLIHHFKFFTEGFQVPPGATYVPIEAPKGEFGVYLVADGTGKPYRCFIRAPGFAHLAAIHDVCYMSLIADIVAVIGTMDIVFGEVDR
- Protocol: biochemical
- Format: biochemical
- Measurement Parameters: 100 µM compound, relative to solvent control, mean (SEM)
- Procedure: Mitochondria were isolated from the following free-living nematode strains: C. elegans—N2, CB3474, ECA882, ECA917, ECA1075, ECA1080; C. briggsae—AF16; P. pacificus—PS312; and P. hermaphrodita—B178. With the exception of the P. hermaphrodita strain B178, adult worms of each strain were grown in bulk through liquid culture to obtain mitochondria in sufficient quantities. […]
Property: % Activity Complex I

Compound: COc1ccc(-c2cc(=Nc3ccccc3N)c3ccccc3o2)cc1 [NPD6380]
Property: % Activity Complex I
Assay Value: 86.43 (2.27) %

Compound: Cc1cc(O)c(C(=O)/C=C/c2ccccc2)c(=O)o1 [NPD8366]
Property: % Activity Complex I
Assay Value: 102.66 (1.57) %

Compound: COc1ccc(N=c2cc(-c3ccc(OC)cc3)oc3ccc(O)cc23)cc1 [NPD8034]
Property: % Activity Complex I
Assay Value: 99.30 (2.57) %

Compound: Cc1cc(O)c(C(=O)/C=C/c2ccc(C(C)C)cc2)c(=O)o1 [NPD6240]
Property: % Activity Complex I
Assay Value: 102.09 (1.80) %

Compound: O=C(NCCc1ccc(Cl)cc1)c1ccccc1C(F)(F)F [Wact-11]
Property: % Activity Complex I
Assay Value: 84.83 (1.45) %

Compound: O=C1OC(c2ccccc2)=NC1=CC=Cc1ccccc1 (mixture of isomers) [NPD8298]
Property: % Activity Complex I
Assay Value: 79.90 (1.23) %

Compound: O=C(/C=C/c1ccccc1)/C=C/c1ccccc1 [FSL0005]
Property: % Activity Complex I
Assay Value: 91.90 (0.78) %

Compound: CCCCCCCCCCCCCCCc1cccc(O)c1C(=O)O [Anacardic acid]
Property: % Activity Complex I
Assay Value: 92.95 (1.67) %

Compound: COc1ccc(-c2cc(=Nc3ccc(C)cc3)c3ccccc3o2)cc1OC [NPD1450]
Property: % Activity Complex I
Assay Value: 84.47 (2.03) %

---

- Target Desc: C. elegans (N2) complex I (NADH:ubiquinone oxidoreductase) (Caenorhabditis elegans, UniProt P24887+Q93873+Q94360)
- Protocol: biochemical
- Assay type: biochemical
- Measurement Parameters: Dose 0.063 µM; read-out: C. elegans mitochondrial complex I activity
Entries and their measured activity at 0.063 µM follow.

Compound: Clc1ccccc1OCCCCn1cnc2ccccc21 [Compound 7925804]
activity at 0.063 µM [%]: 81.6
--
Compound: Cc1ccccc1OCCCCn1cnc2ccccc21 [Compound 7732524]
activity at 0.063 µM [%]: 78.2
--
Compound: Cc1ccc(CSCc2nc3ccccc3[nH]2)cc1 [Compound 7121781]
activity at 0.063 µM [%]: 89.7
--
Compound: CCCOc1ccc(Cn2cnc3ccccc32)cc1 [Compound 7355741]
activity at 0.063 µM [%]: 82.3
--
Compound: Cc1ccc(C(C)C)c(OCC(O)Cn2cnc3ccccc32)c1 (stereo not shown) [Compound 6093301]
activity at 0.063 µM [%]: 81.2
--
Compound: Clc1ccc(Cn2cnc3ccccc32)c(Cl)c1 [Compound 6750659]
activity at 0.063 µM [%]: 84.8
--
Compound: Cc1ccc(SCCCCn2cnc3ccccc32)cc1 [Compound 7925333]
activity at 0.063 µM [%]: 96.6
--
Compound: Cc1ccc(OCCn2cnc3ccccc32)cc1 [Compound 5671538]
activity at 0.063 µM [%]: 92.5
--
Compound: Nc1nc2ccccc2n1Cc1ccc(Cl)cc1 [Compound 5652765]
activity at 0.063 µM [%]: 76.6
--
Compound: Cc1cccc(OCCn2c(C)nc3ccccc32)c1 [Compound 6285199]
activity at 0.063 µM [%]: 78.1

---

- Target Desc: C. elegans (N2) complex I (NADH:ubiquinone oxidoreductase) (Caenorhabditis elegans, UniProt P24887+Q93873+Q94360)
- Protocol: biochemical
- Assay type: biochemical
- Measurement Parameters: Dose 0.625 µM; read-out: C. elegans mitochondrial complex I activity
- Description: Mitochondria were isolated from the following free-living nematode strains: C. elegans—N2, CB3474, ECA882, ECA917, ECA1075, ECA1080; C. briggsae—AF16; P. pacificus—PS312; and P. hermaphrodita—B178. With the exception of the P. hermaphrodita strain B178, adult worms of each strain were grown in bulk through liquid culture to obtain mitochondria in sufficient quantities. […]
Classification field: 1.0 = activity at 0.625 µM at or over 70%; 0.0 = activity at 0.625 µM under 70%.

Compound: Cc1ccc(SCCCCn2cnc3ccccc32)cc1
Category Label: 0.0
--
Compound: Brc1ccccc1OCCCCn1cnc2ccccc21
Category Label: 0.0
--
Compound: Clc1ccc(Cn2cnc3ccccc32)c(Cl)c1
Category Label: 0.0
--
Compound: CCCOc1ccc(Cn2cnc3ccccc32)cc1
Category Label: 0.0
--
Compound: CCc1cc(OCCn2cnc3ccccc32)ccc1Cl
Category Label: 1.0
--
Compound: Clc1ccc(OCCn2cnc3ccccc32)c(Cl)c1
Category Label: 1.0
--
Compound: Cc1ccc(SCCCn2cnc3ccccc32)cc1
Category Label: 0.0
--
Compound: Clc1ccc(SCCCCn2cnc3ccccc32)cc1
Category Label: 0.0
--
Compound: CC(C)Oc1cccc(OCCn2cnc3ccccc32)c1
Category Label: 1.0
--
Compound: Cc1ccccc1OCCCCn1cnc2ccccc21
Category Label: 0.0
--
Compound: CCCn1c(COc2ccc(C)cc2)nc2ccccc21
Category Label: 1.0
--
Compound: Clc1ccc(Cn2cnc3ccccc32)cc1Cl
Category Label: 1.0
--
Compound: Clc1ccccc1OCCCCn1cnc2ccccc21
Category Label: 0.0
--
Compound: FC(F)(F)c1cccc(OCCCCn2cnc3ccccc32)c1
Category Label: 1.0
--
Compound: Cc1nc2ccccc2n1CCOc1ccccc1
Category Label: 1.0
--
Compound: Cc1ccccc1OCCCn1c(C)nc2ccccc21
Category Label: 0.0
--
Compound: Cc1ccc(C(C)C)c(OCC(O)Cn2cnc3ccccc32)c1 (stereo not drawn)
Category Label: 0.0
--
Compound: Cc1ccc(OCCn2cnc3ccccc32)cc1
Category Label: 1.0
--
Compound: Cc1ccc(CSCc2nc3ccccc3[nH]2)cc1
Category Label: 1.0
--
Compound: Cc1nc2ccccc2n1Cc1ccc(Cl)c(Cl)c1
Category Label: 0.0

---

- Target Desc: B. taurus (heart) complex I (Bos taurus, UniProt P03887+P17694+P42026)
- Sequence (P03887 whole entry): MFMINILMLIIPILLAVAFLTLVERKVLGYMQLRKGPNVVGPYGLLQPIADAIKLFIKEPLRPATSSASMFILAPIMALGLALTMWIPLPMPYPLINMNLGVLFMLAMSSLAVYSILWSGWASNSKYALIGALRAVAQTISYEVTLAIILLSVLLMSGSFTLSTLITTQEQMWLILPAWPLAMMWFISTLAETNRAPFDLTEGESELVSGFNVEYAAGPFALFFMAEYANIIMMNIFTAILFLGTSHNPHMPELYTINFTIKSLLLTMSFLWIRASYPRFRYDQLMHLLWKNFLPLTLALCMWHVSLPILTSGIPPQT
- Sequence (P17694 34-463): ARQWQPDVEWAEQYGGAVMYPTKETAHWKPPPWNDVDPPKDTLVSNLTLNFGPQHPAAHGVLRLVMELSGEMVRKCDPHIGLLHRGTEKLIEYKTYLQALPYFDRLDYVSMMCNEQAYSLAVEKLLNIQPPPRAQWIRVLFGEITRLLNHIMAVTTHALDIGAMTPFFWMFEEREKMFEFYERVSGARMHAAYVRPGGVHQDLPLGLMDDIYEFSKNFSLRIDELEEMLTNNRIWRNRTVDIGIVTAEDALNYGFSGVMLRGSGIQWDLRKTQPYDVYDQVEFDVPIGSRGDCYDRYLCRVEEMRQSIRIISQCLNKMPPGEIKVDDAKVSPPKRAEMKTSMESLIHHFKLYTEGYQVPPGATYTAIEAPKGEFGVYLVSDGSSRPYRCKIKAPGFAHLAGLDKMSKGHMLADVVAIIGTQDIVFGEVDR
- Sequence (P42026 38-216): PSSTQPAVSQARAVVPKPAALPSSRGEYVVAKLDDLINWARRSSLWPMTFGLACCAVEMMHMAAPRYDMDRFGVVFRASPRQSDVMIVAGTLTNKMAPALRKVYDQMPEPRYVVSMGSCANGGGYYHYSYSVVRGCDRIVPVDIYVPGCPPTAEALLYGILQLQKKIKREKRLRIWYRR
- Protocol: biochemical
- Type: biochemical
- Measurement Parameters: B. taurus; dose 3 µM; Mean of replicates; read-out: Complex I activity, dose-response data
Item-by-item account of activity at 3 µM

Compound: COc1cc2c(cc1OC)C(C(C)c1ccc(CC(C)C)cc1)=NCC2 (stereo not shown)
Result Unit: %
activity at 3 µM: 85.9
//
Compound: COc1cc2c(cc1OC)C(c1ccc(-c3ccc(Cl)c(Cl)c3)o1)=NCC2
Result Unit: %
activity at 3 µM: 95.5
//
Compound: CC(C)Cc1ccc(C(C)c2nc3ccccc3n2C)cc1 (stereo not shown)
Result Unit: %
activity at 3 µM: 104
//
Compound: COc1cc2c(cc1OC)C(/C=C/c1ccc(N(C)C)cc1)=NCC2
Result Unit: %
activity at 3 µM: 91.2
